biological target: STING (Homo sapiens, UniProt Q86WV6, G230A/H232R/R293Q/R71H); assay: STING reporter assay: luciferase reporter activity in THP1-Dual KO-IFNAR2 cells stimulated with 2′3′cGAMP; settings: 15 μM 2′3′cGAMP, 24h, read-out: hSTING EC50
Sequence (Q86WV6 whole entry R71H/G230A/H232R/R293Q): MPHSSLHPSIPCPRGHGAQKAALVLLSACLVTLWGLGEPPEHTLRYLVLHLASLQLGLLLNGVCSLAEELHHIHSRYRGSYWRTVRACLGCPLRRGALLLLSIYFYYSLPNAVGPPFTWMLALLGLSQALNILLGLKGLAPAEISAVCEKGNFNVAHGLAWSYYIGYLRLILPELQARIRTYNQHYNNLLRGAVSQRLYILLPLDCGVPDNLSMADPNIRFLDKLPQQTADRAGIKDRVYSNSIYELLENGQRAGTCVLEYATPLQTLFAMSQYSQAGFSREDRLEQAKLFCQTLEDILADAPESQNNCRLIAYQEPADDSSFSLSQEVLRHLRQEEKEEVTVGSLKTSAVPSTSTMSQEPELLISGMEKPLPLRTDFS
pEC50: −log10 of the molar value.
The reader will find reported pEC50 values listed item by item below.
readout-name: pEC50

INSERT INTO assay_data (compound, readout_name, observed_measurement) VALUES
  ('CCc1ccc(-n2cc(-c3ccc4[nH]cc(NC(=O)C5CN(C)C5)c4c3)cn2)cc1 [Compound 129]', 'pEC50', '4.00 to 5.30'),
  ('O=C(Nc1c[nH]c2ccc(-c3cnn(-c4ccc(C(F)(F)F)cc4)c3)cc12)c1ccon1 [Compound 280]', 'pEC50', '6.00 to 6.70'),
  ('CCc1ccc(-n2cc(-c3ccc4[nH]cc(NC(=O)C(C)O)c4c3)cn2)cc1 (stereo not shown) [Compound 132]', 'pEC50', '6.00 to 6.70'),
  ('CCC(=O)Nc1c[nH]c2ccc(C3=CCCCC3)cc12 [Compound 141]', 'pEC50', '4.00 to 5.30'),
  ('CC(=O)Nc1c[nH]c2ccc(-c3cnn(-c4ccc(CC(F)(F)F)cc4)c3)cc12 [Compound 167]', 'pEC50', '6.70 to 7.40'),
  ('CCC(=O)Nc1c[nH]c2ccc(-c3ccc(OC(F)(F)F)cc3)cc12 [Compound 143]', 'pEC50', '5.30 to 6.00'),
  ('O=C(CC(O)C(F)(F)F)Nc1c[nH]c2ccc(-c3cnn(-c4ccc(C(F)(F)F)cc4)c3)cc12 (stereo not shown) [Compound 195]', 'pEC50', '6.00 to 6.70'),
  ('CCC(=O)Nc1c[nH]c2ccc(-c3cnn(-c4ccc(C(F)(F)F)c(C)c4)c3)cc12 [Compound 109]', 'pEC50', '6.00 to 6.70'),
  ('CC(C)(C#N)C(=O)Nc1c[nH]c2ccc(-c3cnn(-c4ccc(C(F)(F)F)cc4)c3)cc12 [Compound 228]', 'pEC50', '5.30 to 6.00'),
  ('CCC(=O)Nc1c[nH]c2ccc(-c3cnn(-c4ccc(C(F)(F)F)cc4)c3)cc12 [Compound 139]', 'pEC50', '6.00 to 6.70'),
  ('CN1C(=O)CCC1C(=O)Nc1c[nH]c2ccc(-c3cnn(-c4ccc(C(F)(F)F)cc4)c3)cc12 (stereo not shown) [Compound 252]', 'pEC50', '5.30 to 6.00'),
  ('CC(=O)Nc1c[nH]c2ccc(-c3cnn(-c4ccc(F)c(F)c4)c3)cc12 [Compound 170]', 'pEC50', '5.30 to 6.00'),
  ('CCC(=O)Nc1c[nH]c2ccc(-c3cnn(-c4ccc(CC)cc4)c3)nc12 [Compound 164]', 'pEC50', '4.00 to 5.30'),
  ('CCC(=O)Nc1c[nH]c2ccc(-c3cnn(-c4ccc(C(F)(F)F)c(COC)c4)c3)cc12 [Compound 256]', 'pEC50', '5.30 to 6.00'),
  ('CN1CCC1C(=O)Nc1c[nH]c2ccc(-c3cnn(-c4ccc(C(F)(F)F)cc4)c3)cc12 (stereo not shown) [Compound 254]', 'pEC50', '4.00 to 5.30'),
  ('CCc1ccc(-n2cc(-c3ccc4[nH]cc(NC(C)=O)c4c3)cn2)cc1 [Compound 134]', 'pEC50', '6.70 to 7.40');
